Test system: LNCaP-IL6 cells
protocol.text: WST-1 proliferation assay, LNCaP-IL6 cells
Format: cell-based, human
experimental.context: 5 uM, 48 h
Label scheme for % Proliferation (vs control) 48 h LNCaP-IL6: lower than 80% is 0 (no), 80% and above is 1 (yes).

Query string: Textbook exercise: given the entry C[C@@H]1C=C2C(=O)O[C@@H]3CC[C@H](C1)C23O (single isomer, unassigned; (-)) [(−)-Galiellalactone, reference compound] , state whether its % Proliferation (vs control) 48 h LNCaP-IL6 is greater than or equal to 80%.
Result string: 0 (no)

Query string: Textbook exercise: given the entry C[C@H]1C=C2C(=O)OC3[C@H](c4ccccc4)C[C@H](C1)[C@]23O (stereo partly drawn) , state whether its % Proliferation (vs control) 48 h LNCaP-IL6 is greater than or equal to 80%.
Result string: 0 (no)

Query string: Textbook exercise: given the entry COC(=O)C1=C[C@H](C)C[C@H]2C[C@H](c3ccccc3)[C@@H]3O[C@]123 (stereo in doubt) , state whether its % Proliferation (vs control) 48 h LNCaP-IL6 is greater than or equal to 80%.
Result string: 1 (yes)

Query string: Textbook exercise: given the entry C[C@H]1C=C2C(=O)OC3[C@H](Cc4ccccc4)C[C@H](C1)[C@]23O (stereo partly drawn) , state whether its % Proliferation (vs control) 48 h LNCaP-IL6 is greater than or equal to 80%.
Result string: 0 (no)

Query string: Textbook exercise: given the entry COC(=O)C1=C[C@H](C)C[C@H]2C[C@@H](c3ccccc3)[C@@H]3O[C@]123 (stereo in doubt) , state whether its % Proliferation (vs control) 48 h LNCaP-IL6 is greater than or equal to 80%.
Result string: 0 (no)

Query string: Textbook exercise: given the entry COC(=O)C1=C[C@H](C)C[C@H]2CC(C)(C)[C@@H]3O[C@]123 (stereo in doubt) , state whether its % Proliferation (vs control) 48 h LNCaP-IL6 is greater than or equal to 80%.
Result string: 0 (no)

Query string: Textbook exercise: given the entry COC(=O)C1=C[C@H](C)C[C@H]2C[C@@H](Cc3ccccc3)[C@@H]3O[C@]123 (stereo in doubt) , state whether its % Proliferation (vs control) 48 h LNCaP-IL6 is greater than or equal to 80%.
Result string: 1 (yes)

Query string: Textbook exercise: given the entry C[C@H]1C=C2C(=O)OC3C(C)(C)C[C@H](C1)[C@]23O (stereo partly drawn) , state whether its % Proliferation (vs control) 48 h LNCaP-IL6 is greater than or equal to 80%.
Result string: 0 (no)
